- Test system: Yersinia pestis
- Test summary: Antimicrobial activity against Yersinia pestis KIM6+
- Type: functional
Rule: measured MIC below 20 µg/mL gets label 1; anything equal to or greater than 20 µg/mL gets label 0.

## Input For this compound, is MIC lower than 20 µg/mL? C[C@@H](O)[C@H]1C(=O)N2C(C(=O)O)=C(S[C@H]3CCNC3)S[C@H]12
## Output label 1

## Input Please give the result for C[C@@H](O)[C@H]1C(=O)N2C(C(=O)O)=C(SCCN)S[C@H]12 too.
## Output label 1

## Input Please give the result for C[C@@H](O)[C@H]1C(=O)N2C(C(=O)O)=C(SCCNC=N)S[C@H]12 too.
## Output label 1

## Input Please give the result for C[C@@H](O)[C@H]1C(=O)N2C(C(=O)O)=C(SCCO)S[C@H]12 too.
## Output label 0

## Input Please give the result for CNCCSC1=C(C(=O)O)N2C(=O)[C@H]([C@@H](C)O)[C@H]2S1 too.
## Output label 0

## Input Please give the result for C[C@@H](O)[C@H]1C(=O)N2C(C(=O)O)=C(SCCN(C)C)S[C@H]12 too.
## Output label 0

## Input Please give the result for C[C@@H](O)[C@H]1C(=O)N2C(C(=O)O)=C(S[C@@H]3CN[C@H](C(=O)N(C)C)C3)S[C@H]12 too.
## Output label 0

## Input Please give the result for C[C@@H](O)[C@H]1C(=O)N2C(C(=O)O)=C(CCc3ccccn3)S[C@H]12 too.
## Output label 0

## Input Please give the result for C[C@@H](O)[C@H]1C(=O)N2C(C(=O)O)=C(S[C@@H]3CCNC3)S[C@H]12 too.
## Output label 1

## Input Please give the result for C[C@@H](O)[C@H]1C(=O)N2C(C(=O)O)=C(SCCOC(N)=O)S[C@H]12 [Sch-34343] too.
## Output label 1

## Input Please give the result for C[C@@H](O)[C@H]1C(=O)N2C(C(=O)O)=CS[C@H]12 too.
## Output label 0

* * *

- Test summary: Inhibition of Escherichia coli type 1 signal peptidase using peptide substrate after 30 mins by fluorescence assay
What IC50 was measured for each of the following?
Dear colleague, please return just the value in µg/mL, with no unit written.

## Input Field request: IC50 | item: C[C@@H](O)[C@H]1C(=O)N2C(C(=O)O)=C(S[C@@H]3CN[C@H](C(=O)N(C)C)C3)S[C@H]12
## Output 1.22

## Input Please give the result for C[C@@H](O)[C@H]1C(=O)N2C(C(=O)O)=C(S[C@@H]3CCNC3)S[C@H]12 too.
## Output 1.75

## Input Please give the result for C[C@@H](O)[C@H]1C(=O)N2C(C(=O)O)=C(SCCOC(N)=O)S[C@H]12 too.
## Output 0.96

## Input Please give the result for CNCCSC1=C(C(=O)O)N2C(=O)[C@H]([C@@H](C)O)[C@H]2S1 too.
## Output 6.37

## Input Please give the result for C[C@@H](O)[C@H]1C(=O)N2C(C(=O)O)=C(SCCO)S[C@H]12 too.
## Output 1.49

## Input Please give the result for C[C@@H](O)[C@H]1C(=O)N2C(C(=O)O)=C(S[C@@H]3CC[S+]([O-])C3)S[C@H]12 (some centres not stated) too.
## Output 1.16

## Input Please give the result for C[C@@H](O)[C@H]1C(=O)N2C(C(=O)O)=C(S[C@H]3CCNC3)S[C@H]12 too.
## Output 0.8

## Input Please give the result for C[C@@H](O)[C@H]1C(=O)N2C(C(=O)O)=C(SCCNC=N)S[C@H]12 too.
## Output 1.04

## Input Please give the result for C[C@@H](O)[C@H]1C(=O)N2C(C(=O)O)=C(SCCN(C)C)S[C@H]12 too.
## Output 3.95

## Input Please give the result for C[C@@H](O)[C@H]1C(=O)N2C(C(=O)O)=C(CCc3ccccn3)S[C@H]12 too.
## Output 1.31

## Input Please give the result for C[C@@H](O)[C@H]1C(=O)N2C(C(=O)O)=C(SCCN)S[C@H]12 too.
## Output 0.63

## Input Please give the result for C[C@@H](O)[C@H]1C(=O)N2C(C(=O)O)=CS[C@H]12 too.
## Output 2.99
